Values compiled from patent US20060100226A1.

molecular target: murine MEKK2 (mMEKK2) (Mus musculus, UniProt Q61083); assay: MEKK2 PhosphoELISA (mMEKK2/MKK4); assay type: biochemical; settings: substrate MKK4/SKK1 (unactive), ATP final 10 μM, O.D. 450 nm
Sequence (Q61083 whole entry): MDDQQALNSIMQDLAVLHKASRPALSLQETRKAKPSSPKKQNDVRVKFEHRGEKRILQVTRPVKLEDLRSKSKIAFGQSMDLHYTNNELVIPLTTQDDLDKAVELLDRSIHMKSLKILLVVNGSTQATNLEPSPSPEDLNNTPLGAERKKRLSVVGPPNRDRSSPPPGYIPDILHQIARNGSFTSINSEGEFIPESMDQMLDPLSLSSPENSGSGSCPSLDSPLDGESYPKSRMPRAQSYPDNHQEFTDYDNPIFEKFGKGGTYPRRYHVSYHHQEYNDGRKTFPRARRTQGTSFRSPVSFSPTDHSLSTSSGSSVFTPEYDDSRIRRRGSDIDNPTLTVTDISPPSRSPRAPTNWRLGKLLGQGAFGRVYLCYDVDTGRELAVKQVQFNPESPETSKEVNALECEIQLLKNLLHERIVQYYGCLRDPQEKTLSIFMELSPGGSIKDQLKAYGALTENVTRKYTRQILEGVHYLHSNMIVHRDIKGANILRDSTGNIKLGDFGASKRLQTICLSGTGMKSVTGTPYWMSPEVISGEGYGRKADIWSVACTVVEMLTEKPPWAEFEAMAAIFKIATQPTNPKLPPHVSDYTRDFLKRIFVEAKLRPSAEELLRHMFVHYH
metric: IC50

N#Cc1c(-c2cccc(N)c2)nc(SCc2cccc(NC(=O)c3ccc(Cl)c(Cl)c3)c2)[nH]c1=O < 10 µM
CCN(CC)CCOc1ccc(-c2nc(SCc3cccc(NC(=O)c4ccc(Cl)c(Cl)c4)c3)[nH]c(=O)c2C#N)cc1 > 40 µM

# evaluate next
Q) Look up and state reported IC50 for CCOC(=O)C1CCN(c2ccccc2-c2nc(SCc3cccc(NC(=O)c4ccc(Cl)c(Cl)c4)c3)[nH]c(=O)c2C#N)CC1
A) > 40 µM
